List of HC50 at 1 h values.
Test: Toxicity in sheep RBC assessed as induction of hemolysis measured after 1 hr
Format: tissue-based, Ovis aries, Erythrocyte
Conditions: sheep red blood cells
Readout kind: HC50 at 1 h

>>> obs_value("C[C@H](C(=O)O)N(Cc1cccc(C(=O)O)n1)Cc1cccc(C(=O)O)n1")
"> 1020 µg/mL"
>>> obs_value("C[C@@H](C(=O)O)N(Cc1cccc(C(=O)O)n1)Cc1cccc(C(=O)O)n1")
"> 1020 µg/mL"

* * *

Here, each record is paired with measured pKi data.
Assay: Non competitive inhibition of NDM-1 (unknown origin) assessed as inhibition of substrate hydrolysis by measuring decrease in Vmax using meropenem as substrate preincubated with enzyme for 5 mins followed by substrate addition by Lineweaver-Burk plot analysis
pKi: −log10 of the molar value.
Readout kind: pKi

>>> obs_value("C[C@H](C(=O)O)N(Cc1cccc(C(=O)O)n1)Cc1cccc(C(=O)O)n1")
5.80
>>> obs_value("C[C@@H](C(=O)O)N(Cc1cccc(C(=O)O)n1)Cc1cccc(C(=O)O)n1")
5.77
